test system: K562 CRISPRi cells; assay: Perturb-seq pooled growth measurement (sgRNA counts, growth phenotype γ, relative activity); assay type: cell-based, human; settings: sequencing read counts; 10 days of growth (day twelve after transduction)
Catalogue of Perturb-seq pooled growth sgRNA counts, d10 values
value_kind: Perturb-seq pooled growth sgRNA counts, d10

substance="HSPE1_+_198365089.23-P1P2_00: sgRNA targeting HSPE1, GGAGACTCGCAGTCCGGCCC, SEQ ID NO: 9 (listed as DNA, chemistry not fully specified)" observed_measurement=1179
substance="POLR2H_+_184081251.23-P1P2_08: sgRNA targeting POLR2H, GGGGCCACGCGAGCAGCAGA, SEQ ID NO: 116 (listed as DNA, chemistry not fully specified)" observed_measurement=3869
substance="GATA1_−_48645022.23-P1P2_08: sgRNA targeting GATA1, GTGAGCTTTCCACATCCCCA, SEQ ID NO: 122 (listed as DNA, chemistry not fully specified)" observed_measurement=1873
